Data credit: PubChem BioAssay (Tox21)

Experimental details: qHTS RealTime-Glo MT Cell Viability Assay in HepG2 cells - 16 hour (AID 1224885); also: % is scaled to controls: 0 for no effect and ±100 for the full control effect; nearly all actives have a fitted effect of over 50% in size
Condition summary: RealTime-Glo luminescence; series mostly up to 76.8 µM
Inconclusive results are not listed. Active and inactive are the calls of the source. Calls follow the shape of the dose curve; as a rule, active = well fitted cell-killing curve with a large enough effect in the repeat runs; inconclusive = weak or mixed curves; inactive = flat fitted curve, though single readings scatter.
Assay endpoint: activity change, negative = cytotoxic

Use these answered entries as a reference point.
[[record]]
compound = "Cc1cc(C)n(CO)n1"
assay_endpoint = "activity change, negative = cytotoxic"
test_result = "inactive"

[[record]]
compound = "CCCCCCCCCCCCCCCCCCCl"
assay_endpoint = "activity change, negative = cytotoxic"
test_result = "-0.256% [at 6.97 µM] (inactive)"

[[record]]
compound = "CC(C)=CCC/C(C)=C/C=N/O"
assay_endpoint = "activity change, negative = cytotoxic"
test_result = "inactive"

[[record]]
compound = "CC(C(=O)O)c1ccc2c(c1)Cc1cccnc1O2 (stereo unspecified)"
assay_endpoint = "activity change, negative = cytotoxic"
test_result = "inactive"

[[record]]
compound = "CCCCCCCCNC"
assay_endpoint = "activity change, negative = cytotoxic"
test_result = "inactive"


The compound "CC(=O)Nc1ccccc1O" showed activity change, negative = cytotoxic equal to inactive

Per the records, this compound ( "O=C1CCCN1CCO" ) has activity change, negative = cytotoxic equal to inactive

The compound CC(COc1ccccc1)NC(C)C(O)c1ccc(O)cc1 (stereo unspecified) showed activity change, negative = cytotoxic equal to inactive

Per the records, this compound ( "O=C(O)c1ccc2c(c1)nc(C(=O)NC1CCN(C3CC3)CC1)n2Cc1cc(-c2ccc(Cl)s2)on1" ) has activity change, negative = cytotoxic equal to -5.36% [at 15.8 µM] (inactive)

Form: compound = "O=P(c1ccccc1)(c1ccccc1)c1ccccc1" ; activity change, negative = cytotoxic = inactive

Query "CO[C@@H]1[C@@H](O[C@@H]2O[C@H](C)[C@@H](O[C@H]3C[C@@](C)(O)[C@@H](O)[C@H](C)O3)[C@H](N(C)C)[C@H]2O)[C@@H](CC=O)C[C@@H](C)[C@@H](O[C@@H]2CC[C@H](N(C)C)[C@@H](C)O2)/C=C/C=C/C[C@@H](C)OC(=O)C[C@H]1OC(C)=O" yields activity change, negative = cytotoxic of inactive

* * *

Experimental details: A CellTox Green Cytotoxicity Assay to monitor cytotoxicity in HepG2 cells - 16 hour (AID 1224876); also: % is scaled to controls: 0 for no effect and ±100 for the full control effect; nearly all actives have a fitted effect of over 45% in size
Condition summary: CellTox Green fluorescence; series mostly up to 76.8 µM
Records with an inconclusive call do not appear. Active and inactive are the calls of the source. The call rests on the fitted dose curve; in most records, active means well fitted activation curve with a large enough effect in the repeat runs; inconclusive means weak or mixed curves; inactive means flat fitted curve, though single readings scatter.
Assay endpoint: outcome

Known results for compounds:
[[record]]
compound = "O=c1[nH]nc(-c2ccc([N+](=O)[O-])o2)o1"
assay_endpoint = "outcome"
test_result = "inactive"

[[record]]
compound = "CCOC(C)OCC"
assay_endpoint = "outcome"
test_result = "inactive"

[[record]]
compound = "C(/C=C/C=C/Nc1ccccc1)=Nc1ccccc1"
assay_endpoint = "outcome"
test_result = "inactive"

[[record]]
compound = "CC(C)(Cc1c[nH]c2ccccc12)NCC(O)COc1ccccc1C#N (stereo not given)"
assay_endpoint = "outcome"
test_result = "inactive"


Item: "O=C(O)c1ccncc1" | outcome: inactive

For "O=Cc1ccc(Cl)c([N+](=O)[O-])c1" the compound record lists outcome as inactive

Short answer for C[C@H](N)C(=O)N[C@@H](C)C(=O)NC1[C@H]2CN(c3nc4c(cc3F)c(=O)c(C(=O)O)cn4-c3ccc(F)cc3F)C[C@@H]12 (stereo not given in full) : outcome was inactive

get_value(item= CCC(C)CCCC(C)(C)O (stereo not given) , readout=outcome) returns inactive

Measured outcome, "O=C(O)CNc1ccccc1" : inactive

For "O=C(OCCN1CCOCC1)c1cccnc1Nc1cccc(C(F)(F)F)c1" the compound record lists outcome as inactive

For "FC(F)(Cl)C(F)(Cl)Cl" the compound record lists outcome as inactive

The compound identified as "Nc1cccc2c(=O)[nH][nH]c(=O)c12" registered its outcome at inactive

Entry CC(C)=CCCC(C)C=O (stereo not given) — recorded outcome = inactive
